Values compiled from the Immune Epitope Database (IEDB).

- system.name: HLA-B*18:01
- measurement.description: IEDB peptide-MHC binding, purified MHC/direct/fluorescence; filed as Kd, often an IC50 or EC50 that approximates it; bounds were set here for any values at or beyond the usual limits of such assays
- test.conditions: source organism: Orthohantavirus hantanense
pKd: −log10 of the molar value.
recorded.endpoint: pKd

Fill blank: measured pKd of the sequence AEAAGCSMI is ____.
≤ 4.70

###

Collected Kd values appear next to each entry.
- system.name: HLA-A*01:01
- measurement.description: IEDB peptide-MHC binding, purified MHC/direct/fluorescence; filed as Kd, often an IC50 or EC50 that approximates it; bounds were set here for any values at or beyond the usual limits of such assays
- test.conditions: source organism: Homo sapiens
Respond numerically; units are µM and should not be typed.

chain	measure.unit	Kd
ILGPPGSVY	µM	6.42

Fill blank: measured Kd of the sequence STDHIPILY is ____.
0.148

###

- system.name: HLA-A*24:02
- measurement.description: IEDB peptide-MHC binding, purified MHC/competitive/radioactivity; filed as Kd, often an IC50 or EC50 that approximates it; bounds were set here for any values at or beyond the usual limits of such assays
- test.conditions: source organism: Mammarenavirus guanaritoense
recorded.endpoint: pKd
Reminder that pKd means the negative base-10 logarithm of the concentration expressed in mol/L.

chain	recorded.endpoint	recorded.measurement
KYILIQAGF	pKd	7.92

Could you now consider this next sequence?
Fill blank: measured pKd of the sequence VWKSGILQLF is ____.
7.20

###

- system.name: HLA-A*23:01
- measurement.description: IEDB peptide-MHC binding, purified MHC/competitive/radioactivity; filed as Kd, often an IC50 or EC50 that approximates it; bounds were set here for any values at or beyond the usual limits of such assays
- test.conditions: source organism: Lymphocytic choriomeningitis virus (strain Armstrong)
recorded.endpoint: Kd

Fill blank: measured Kd of the sequence GPDIYKGVY is ____.
≥ 77.7 µM

###

- system.name: HLA-A*68:01
- measurement.description: IEDB peptide-MHC binding, purified MHC/competitive/radioactivity; filed as Kd, often an IC50 or EC50 that approximates it; bounds were set here for any values at or beyond the usual limits of such assays
- test.conditions: source organism: Dengue virus 1 Brazil/97-11/1997
Collected pKd values appear next to each entry.
Reminder that pKd means the negative base-10 logarithm of the concentration expressed in mol/L.

Example sequences with recorded pKd:
chain	recorded.endpoint	recorded.measurement
MSAAIKDSK	pKd	7.12
EVGAIALDFK	pKd	7.81
ETTKHAVSR	pKd	7.99
DISEMGANFR	pKd	7.89

Fill blank: measured pKd of the sequence NMTSRMLLNR is ____.
6.33

###

- system.name: HLA-A*26:01
- measurement.description: IEDB peptide-MHC binding, purified MHC/competitive/fluorescence; filed as Kd, often an IC50 or EC50 that approximates it; bounds were set here for any values at or beyond the usual limits of such assays
- test.conditions: source organism: Orthomarburgvirus marburgense
recorded.endpoint: pKd
Reminder that pKd means the negative base-10 logarithm of the concentration expressed in mol/L.

Fill blank: measured pKd of the sequence ALFHKVQSY is ____.
5.94

###

- system.name: HLA-B*45:06
- measurement.description: IEDB peptide-MHC binding, purified MHC/competitive/fluorescence; filed as Kd, often an IC50 or EC50 that approximates it; bounds were set here for any values at or beyond the usual limits of such assays
- test.conditions: source organism: Burkholderia mallei SAVP1
pKd: −log10 of the molar value.
recorded.endpoint: pKd

Fill blank: measured pKd of the sequence RQYERYTAL is ____.
≤ 5.30

###

- system.name: HLA-B*15:01
- measurement.description: IEDB peptide-MHC binding, purified MHC/direct/fluorescence; filed as Kd, often an IC50 or EC50 that approximates it; bounds were set here for any values at or beyond the usual limits of such assays
- test.conditions: source organism: Influenza A virus (A/Puerto Rico/8/34/Mount Sinai(H1N1))
recorded.endpoint: Kd (µM)
Respond numerically; units are µM and should not be typed.

Fill blank: measured Kd of the sequence ILKGKFQTA is ____.
5.72

###

- system.name: HLA-B*08:01
- measurement.description: IEDB peptide-MHC binding, purified MHC/direct/fluorescence; filed as Kd, often an IC50 or EC50 that approximates it; bounds were set here for any values at or beyond the usual limits of such assays
- test.conditions: source organism: Brucella melitensis
recorded.endpoint: Kd

Fill blank: measured Kd of the sequence EKPPVRPIF is ____.
5.61 µM

###

- system.name: HLA-B*27:05
- measurement.description: IEDB peptide-MHC binding, purified MHC/direct/fluorescence; filed as Kd, often an IC50 or EC50 that approximates it; bounds were set here for any values at or beyond the usual limits of such assays
- test.conditions: source organism: Escherichia coli O157:H7
pKd: −log10 of the molar value.
recorded.endpoint: pKd

Example sequences with recorded pKd:
chain	pKd
SMYQLMITI	≤ 4.70
AQRPAKYSY	≤ 4.70

Could you now consider this next sequence?
Fill blank: measured pKd of the sequence RFDEAIINY is ____.
≤ 4.70

###

- system.name: HLA-A*03:01
- measurement.description: IEDB peptide-MHC binding, purified MHC/competitive/radioactivity; filed as Kd, often an IC50 or EC50 that approximates it; bounds were set here for any values at or beyond the usual limits of such assays
- test.conditions: source organism: Mammarenavirus choriomeningitidis
recorded.endpoint: Kd (nM)
Respond numerically; units are nM and should not be typed.

// fetch HLA-A*03:01 Kd for LVSFLLLAGR
803

###

- system.name: HLA-A*26:01
- measurement.description: IEDB peptide-MHC binding, purified MHC/direct/fluorescence; filed as Kd, often an IC50 or EC50 that approximates it; bounds were set here for any values at or beyond the usual limits of such assays
- test.conditions: source organism: Encephalitozoon cuniculi GB-M1
recorded.endpoint: Kd

Fill blank: measured Kd of the sequence FSFFMNENF is ____.
≥ 20 µM

###

- system.name: HLA-B*18:01
- measurement.description: IEDB peptide-MHC binding, purified MHC/direct/fluorescence; filed as Kd, often an IC50 or EC50 that approximates it; bounds were set here for any values at or beyond the usual limits of such assays
- test.conditions: source organism: Entamoeba histolytica
pKd: −log10 of the molar value.
recorded.endpoint: pKd

Fill blank: measured pKd of the sequence KLMPGSIYV is ____.
≤ 4.70

###

- system.name: HLA-B*18:01
- measurement.description: IEDB peptide-MHC binding, purified MHC/direct/fluorescence; filed as Kd, often an IC50 or EC50 that approximates it; bounds were set here for any values at or beyond the usual limits of such assays
- test.conditions: source organism: Marburg virus - Musoke, Kenya, 1980
recorded.endpoint: pKd
Reminder that pKd means the negative base-10 logarithm of the concentration expressed in mol/L.

Fill blank: measured pKd of the sequence SEINNLNLT is ____.
5.09

###

- system.name: HLA-B*18:01
- measurement.description: IEDB peptide-MHC binding, purified MHC/direct/fluorescence; filed as Kd, often an IC50 or EC50 that approximates it; bounds were set here for any values at or beyond the usual limits of such assays
- test.conditions: source organism: Influenza A virus (A/equine/Massachussetts/213/2003(H3N8))
pKd: −log10 of the molar value.
recorded.endpoint: pKd

// fetch HLA-B*18:01 pKd for ILKGKFQTA
≤ 4.70

###

- system.name: HLA-A*01:01
- measurement.description: IEDB peptide-MHC binding, purified MHC/direct/fluorescence; filed as Kd, often an IC50 or EC50 that approximates it; bounds were set here for any values at or beyond the usual limits of such assays
- test.conditions: source organism: Cryptosporidium parvum
pKd: −log10 of the molar value.
recorded.endpoint: pKd

Fill blank: measured pKd of the sequence DFIGKTIGF is ____.
≤ 4.70

###

- system.name: HLA-B*27:03
- measurement.description: IEDB peptide-MHC binding, purified MHC/competitive/fluorescence; filed as Kd, often an IC50 or EC50 that approximates it; bounds were set here for any values at or beyond the usual limits of such assays
- test.conditions: source organism: Burkholderia orbicola
pKd: −log10 of the molar value.
recorded.endpoint: pKd

Fill blank: measured pKd of the sequence RIEQLYPFA is ____.
≤ 4.70

###

- system.name: HLA-A*30:01
- measurement.description: IEDB peptide-MHC binding, purified MHC/competitive/radioactivity; filed as Kd, often an IC50 or EC50 that approximates it; bounds were set here for any values at or beyond the usual limits of such assays
- test.conditions: source organism: Dengue virus 1 Brazil/97-11/1997
Collected pKd values appear next to each entry.
Reminder that pKd means the negative base-10 logarithm of the concentration expressed in mol/L.

chain	recorded.measurement
RADRVIDPRR	5.71

Could you now consider this next sequence?
Fill blank: measured pKd of the sequence KKMIRPQPME is ____.
5.06

###

- system.name: HLA-A*23:01
- measurement.description: IEDB peptide-MHC binding, purified MHC/competitive/radioactivity; filed as Kd, often an IC50 or EC50 that approximates it; bounds were set here for any values at or beyond the usual limits of such assays
- test.conditions: source organism: Dengue virus 1 Brazil/97-11/1997
Collected pKd values appear next to each entry.
Reminder that pKd means the negative base-10 logarithm of the concentration expressed in mol/L.

chain	recorded.endpoint	recorded.measurement
VMAFIAFLRF	pKd	6.07
RSCTLPPLRF	pKd	5.60

Could you now consider this next sequence?
Fill blank: measured pKd of the sequence EHALLATSIF is ____.
5.34
